In this section, each of the compounds is paired with its reported IC50.
biological target: Bcl-2 protein (histag-Bcl-2, UniProtKB P10415) (Homo sapiens (Human), UniProt P10415); experiment: Inhibition of Bcl-2 by the fluorescence polarisation technique; format: binding; settings: fluorescence polarisation test; incubation for 2 hours; read-out: IC50 (nM) Bcl-2 FP
Sequence (P10415 whole entry): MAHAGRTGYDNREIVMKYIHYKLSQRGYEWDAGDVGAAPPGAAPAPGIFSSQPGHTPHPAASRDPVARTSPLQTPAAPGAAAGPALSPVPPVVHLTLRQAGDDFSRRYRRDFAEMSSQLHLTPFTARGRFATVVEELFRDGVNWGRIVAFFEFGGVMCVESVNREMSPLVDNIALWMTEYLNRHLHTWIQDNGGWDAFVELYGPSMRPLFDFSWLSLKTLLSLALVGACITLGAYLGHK
Counter-ions that a name gives are not always drawn.

compound	unit info	IC50
CCN(C(=O)c1cc(-c2cc3c(cc2C(=O)N2Cc4ccccc4C[C@H]2CN2CCOCC2)CN(C(=O)Cc2ccccc2)CC3)n(C)c1C)c1ccc(O)cc1 [Example 780]	nM	3.5
CN(C(=O)c1cc(-c2cc3c(cc2C(=O)N2Cc4ccccc4C[C@H]2CN2CCOCC2)CN(C(=O)OC(C)(C)C)CC3)n2c1CCCC2)c1ccc(O)cc1 [Example 1]	nM	13
CN(C(=O)c1cc(-c2cc3c(cc2C(=O)N2Cc4ccccc4C[C@H]2CN2CCOCC2)CNCC3)n2c1CCCC2)c1ccc(O)cc1 [Example 2, dihydrochloride]	nM	397
CCCCN(CCCC)C(=O)c1cc(-c2cc3c(cc2C(=O)N2Cc4ccccc4C[C@H]2CN2CCOCC2)CN(C(=O)Oc2ccccc2)CC3)n(C)c1C [Example 197]	nM	26
CCC(C(=O)N1CCc2cc(-c3cc(C(=O)N(C)c4ccc(O)cc4)c4n3CCCC4)c(C(=O)N3Cc4ccccc4C[C@H]3C)cc2C1)c1ccccc1 (stereo partly shown) [Example 95]	nM	14
Cc1c(C(=O)N(C)c2ccc(O)cc2)cc(-c2cc3c(cc2C(=O)N2Cc4ccccc4C[C@H]2CN2CCOCC2)CN(C(=O)/C=C/c2ccccc2)CC3)n1C [Example 131]	nM	4
Cc1c(C(=O)N(C)c2ccc(O)cc2)cc(-c2cc3c(cc2C(=O)N2Cc4ccccc4C[C@H]2C)CN(C(=O)Oc2ccc(C#N)cc2)CC3)n1C [Example 147]	nM	3.2
C[C@@H]1Cc2ccccc2CN1C(=O)c1cc2c(cc1-c1cc(C(=O)N(C)c3ccc(O)cc3)c3n1CCCC3)CN(C(=O)Nc1ccccc1)C2 [Example 60]	nM	5.9
Cc1ccc(OC(=O)N2CCc3cc(-c4cc(C(=O)N(C)c5ccc(O)cc5)c(C)n4C)c(C(=O)N4Cc5ccccc5C[C@H]4CN4CCOCC4)cc3C2)cc1 [Example 139]	nM	5.1
C[C@@H]1Cc2ccccc2CN1C(=O)c1cc2c(cc1-c1cc(C(=O)N(C)c3ccc(O)cc3)c3n1CCCC3)CCN(C(=O)Cc1ccc(NCCN3CCOCC3)cc1)C2 [Example 96]	nM	3.9
Cc1c(C(=O)N(C)c2ccccc2)cc(-c2cc3c(cc2C(=O)N2Cc4ccccc4C[C@H]2C)CN(C(=O)Oc2cnc4[nH]ccc4c2)CC3)n1C [Example 636]	nM	11
Cc1c(C(=O)N(C)c2ccc(O)cc2)cc(-c2cc3c(cc2C(=O)N2Cc4ccccc4C[C@H]2CN2CCOCC2)CN(C(=O)CCC2CCCCC2)CC3)n1C [Example 132]	nM	4.6
Cc1c(C(=O)N(C)c2ccc(O)cc2)cc(-c2cc3c(cc2C(=O)N2Cc4ccccc4C[C@H]2CN2CCOCC2)CN(C(=O)COc2ccccc2)C3)n1C [Example 159]	nM	8.5
Cc1c(C(=O)N(C)c2ccc(O)cc2)cc(-c2cc3c(cc2C(=O)N2Cc4ccccc4C[C@H]2C)CN(C(=O)CN2CCCCC2)CC3)n1C [Example 799]	nM	15
CN(C(=O)c1cc(-c2cc3c(cc2C(=O)N2Cc4ccccc4C[C@H]2CN2CCOCC2)CN(C(=O)CCc2ccccc2)C3)n2c1CCCC2)c1ccc(O)cc1 [Example 9, hydrochloride]	nM	9
Cc1c(C(=O)N(C)c2ccc(O)cc2)cc(-c2cc3c(cc2C(=O)N2Cc4ccccc4C[C@H]2C)CN(C(=O)Cc2ccc(F)cc2)C3)n1C [Example 102]	nM	5
COc1ccc(CC(=O)N2Cc3cc(C(=O)N4Cc5ccccc5C[C@H]4C)c(-c4cc(C(=O)N(C)c5ccc(O)cc5)c5n4CCCC5)cc3C2)cc1 [Example 51]	nM	5.5
CC(=O)Nc1ccc(OC(=O)N2CCc3cc(-c4cc(C(=O)N(C)c5ccc(O)cc5)c5n4CCCC5)c(C(=O)N4Cc5ccccc5C[C@H]4C)cc3C2)cc1 [Example 59]	nM	3.2
Cc1c(C(=O)N(C)c2ccc(O)cc2)cc(-c2cc3c(cc2C(=O)N2Cc4ccccc4C[C@H]2CN2CCOCC2)CN(C(=O)Nc2ccccc2)CC3)n1C [Example 245]	nM	4.2
C[C@@H]1Cc2ccccc2CN1C(=O)c1cc2c(cc1-c1cc(C(=O)N(C)c3ccc(O)cc3)c3n1CCCC3)CCN(C(=O)Cc1ccccc1)C2 [Example 36]	nM	4.8
C[C@@H]1Cc2ccccc2CN1C(=O)c1cc2c(cc1-c1cc(C(=O)N(C)c3ccc(O)cc3)c3n1CCCC3)CCN(C(=O)OCc1ccccc1)C2 [Example 93]	nM	5.1
Cc1c(C(=O)N(C)c2ccc(O)cc2)cc(-c2cc3c(cc2C(=O)N2Cc4ccccc4C[C@H]2CN2CCOCC2)CN(C(=O)CCc2ccccc2)CC3)n1C [Example 130]	nM	3.1
